System: corneal neovessels
experimentDescription: Experimentally induced corneal neovascularization (N-heptanol scrub): PDT closure of corneal neovessels, fluorescein angiography out to 28 days
Type: in vivo, Sprague Dawley rats
runParameters: corneal neovessels induced by n-heptanol scrub, rats; light dose 20 J/cm^2 at optimal excitation wavelength; optimal drug dose and time interval per compound; grade by corneal fluorescein angiography (neovessel-free area)
experimentalReadout: Extent of neovessel closure at 28 days after treatment

Prompt: Find the measured Extent of neovessel closure at 28 days after treatment of CCC1=C(C)c2cc3[nH]c(cc4nc(c(CC(=O)OC)c5[nH]c(cc1n2)c(C)c5C(=O)NCCOCCO)C(CCC(=O)OC)C4C)c(C)c3C(C)=O (stereo not shown) and report it.
Completion: 1 (1 = 0.21-1.0 mm^2)

Prompt: Find the measured Extent of neovessel closure at 28 days after treatment of CCC1=C(C)c2cc3[nH]c(cc4nc(c(CC(=O)OC)c5[nH]c(cc1n2)c(C)c5C(=O)NCCCO)C(CCC(=O)OC)C4C)c(C)c3C(C)=O (stereo not shown) and report it.
Completion: 0 (0 = 0-0.2 mm^2)

Prompt: Find the measured Extent of neovessel closure at 28 days after treatment of C=Cc1c(C)c2cc3nc(c(CC(=O)OC)c4[nH]c(cc5nc(cc1[nH]2)C(C)=C5CC)c(C)c4C(=O)NCCCO)C(CCC(=O)OC)C3C (stereo not shown) and report it.
Completion: 2 (2 = 1.1-2.0 mm^2)

Prompt: Find the measured Extent of neovessel closure at 28 days after treatment of C=Cc1c(C)c2cc3nc(c(CC(=O)OC)c4[nH]c(cc5nc(cc1[nH]2)C(C)=C5CC)c(C)c4C(=O)NCCOCCOC(C)=O)C(CCC(=O)OC)C3C (stereo not shown) and report it.
Completion: 1 (1 = 0.21-1.0 mm^2)

Prompt: Find the measured Extent of neovessel closure at 28 days after treatment of C=Cc1c(C)c2cc3nc(c(CC(=O)OC)c4[nH]c(cc5nc(cc1[nH]2)C(C)=C5CC)c(C)c4C(=O)NCCCOC(C)=O)C(CCC(=O)OC)C3C (stereo not shown) and report it.
Completion: 1 (1 = 0.21-1.0 mm^2)

Prompt: Find the measured Extent of neovessel closure at 28 days after treatment of C=Cc1c(C)c2cc3nc(c(CC(=O)OC)c4[nH]c(cc5nc(cc1[nH]2)C(C)=C5CC)c(C)c4C(=O)NCCOCCO)C(CCC(=O)OC)C3C (stereo not shown) and report it.
Completion: 1 (1 = 0.21-1.0 mm^2)

Prompt: Find the measured Extent of neovessel closure at 28 days after treatment of C=Cc1c(C)c2cc3nc(c(CCO)c4[nH]c(cc5nc(cc1[nH]2)C(C)=C5CC)c(C)c4C(=O)NCCOCCO)C(CCCO)C3C (stereo not shown) and report it.
Completion: 1 (1 = 0.21-1.0 mm^2)
